Structures can show the parent of a compound that is named as a salt.
Give melting point for every item shown.

Challenge: Quick check: melting point of O=C([O-])C1OC(Oc2cc3ccccc3cc2O)C(O)C(O)C1O.[Na+] [Compound 2a, DHN-β-D-Glucuronide Sodium Salt] ?
Response given: 53 to 55 °C

Challenge: Quick check: melting point of O=C(O)C1OC(Oc2cc3ccccc3cc2O)C(O)C(O)C1O (as salt: salt) [Compound 2b, DHN-β-D-Glucuronide CHA Salt] ?
Response given: 223 to 224 °C

Challenge: Quick check: melting point of O=C(O)C1OC(Oc2ccccc2O)C(O)C(O)C1O (as salt: salt) [Compound 1, Catechol β-D-Glucuronide CHA Salt] ?
Response given: 208 to 210 °C

Challenge: Quick check: melting point of COC(=O)C1OC(Oc2ccccc2O)C(OC(C)=O)C(OC(C)=O)C1OC(C)=O (centres unmarked) ?
Response given: 128 to 130 °C

Challenge: Quick check: melting point of COC(=O)C1OC(Oc2cc3ccccc3cc2O)C(OC(C)=O)C(OC(C)=O)C1OC(C)=O (centres unmarked) ?
Response given: 191 to 192 °C

From: patent US9879303B2
